Can you tell me 100 nM Human C5 R885H-mmh Bound (RU) for the items I'm about to list?
Target: T1, human C5 R885H-mmh (human, UniProt P01031 19-1676)
T1 construct: also called human C5 variant R885H
Test: SPR, mAb captured via anti-hFc, 37C
Your answer should be a plain number; it is taken to be in RU.

Q: // query 100 nM Human C5 R885H-mmh Bound (RU) value for entry H4H11683N (antibody, V domains shown, also called H2M11683N) VH: QVQLVESGGGVVQPGRSLRLSCVASGFTFSSYGIHWVRQAPGKGLEWVAVIWDDGNNINYSDSVKGRFIISRDNSRKTVYLQMNSLRGEDTAVYYCARDAPIAPVPDYWGQGTLVTVSS VL: DIQMTQSPSTLSASVGDRVTITCRASQSISSWLAWYQQKPGKAPKLLIYKASSLDTGVPSRFSGSGSGTEFTLTISSLQPDDFATYYCQQYNTYSYTFGLGTKLEIK
Result: 81

Q: Consider next the binder H4H12169P (antibody, human IgG4, V domains shown, Human IgG4 Fc with S108P hinge mutation (H4H)) VH: EVQLVESGGGLAQPGGSLRLSCAASGFTFRSYAMSWVRQAPGKGPEWVSGIGGNGVTTYYADSVKGRFTISRDNSKNTLFLQMNSLRAEDTAVYYCVQGGLGGYFTGYWGQGTLVTVSS VL: DIQMTQSPSSLSASVGDRVTITCRASQSISTYLNWYQQNPGKAPKLLIFDASSLQSGVPSRFSGSGSGTDFTLTIRGLQPEDFATYYCQQSYSAPLTFGGGTKVEIK in the same way.
Result: 79

Q: Consider next the binder H4H12175P (antibody, human IgG4, V domains shown, Human IgG4 Fc with S108P hinge mutation (H4H)) VH: EVQLVESGGGVVQPGGSLRLSCAASGFTFNDYAMHWVRQAPGKGLEWVSLISGDGGNTYYADSVKGRLTISRDNSKNSLYLQMNSLRTEDTALYYCAKDKGWNFGYFDLWGRGTLVTVSS VL: DIQMTQSPSSLSTSVGDRVTITCRASQNIDTYLNWYQQKPGKAPKLLIYDASSLQSGVPSRFSGSGSGTDFTLTITSLQPEDFATYYCQQNDNILHPLTFGGGTKVEIK in the same way.
Result: 30

Q: Consider next the binder H4H12161P (antibody, human IgG4, V domains shown, Human IgG4 Fc with S108P hinge mutation (H4H)) VH: EVQLVESGGDLVQPGGSLRLSCAASGFTFSDHYMDWVRQAPGKGLDWIGRIRNKANAYNTEYAASVRGRFTISRDDSQNLLYLQMNSLKTDDTAVYYCVRVWNYAYFAMDVWGQGTTVTVSS VL: DIQMTQSPSSLSASVGDRVTITCRSSQNIGIFLNWYQQKPGEAPNLLISAASSLHSGVPSRFSGSGSGTDFTLTIGSLQPEDFATYYCQQTYNTIFTFGPGTKVDIK in the same way.
Result: 54

Q: Consider next the binder H4H12171P (antibody, human IgG4, V domains shown, Human IgG4 Fc with S108P hinge mutation (H4H)) VH: EVQLVESGGGVVRPGGSLRLSCAASGFTFDEYGMTWVRQVPGKGLEWVSGITWNGGFTDYTDSVKGRFTSSRDNAKNSLYLQMNSLRAEDTALYYCARDGYSSSWGAYDIWGQGTMVTVSS VL: DIQMTQSPSSLSASVGDRVTITCRASQSISTYLNWYQQKPGKAPKLLIYAASSLQSGVPLRFSGSGSGTDFTLTISSLQPEDFASYFCQQSYSTPYTFGQGTKLEIK in the same way.
Result: 80

Q: Consider next the binder H4H12164P (antibody, human IgG4, V domains shown, Human IgG4 Fc with S108P hinge mutation (H4H)) VH: EVQLVESGGGLVRSGGSLRLSCAASGFTFNRYAMTWVRQAPGKGLEWVSAISGSGSSTYYTDSVKGRFTISRDNSKNSVDLQMHSLRVEDTAIYYCARGTTVTTGYGMDVWGQGTTVTVSS VL: DIQMTQSPSSLSASVGDRVTFTCQASQDITNSLNWYQQKPGRAPKLLIYDASYLKAGVPSRFSGSGSGTDFTFTISSLQPEDIATYYCQQYDDLPYTFGQGTKLEIK in the same way.
Result: 68

Q: Consider next the binder H4H12170P (antibody, human IgG4, V domains shown, Human IgG4 Fc with S108P hinge mutation (H4H)) VH: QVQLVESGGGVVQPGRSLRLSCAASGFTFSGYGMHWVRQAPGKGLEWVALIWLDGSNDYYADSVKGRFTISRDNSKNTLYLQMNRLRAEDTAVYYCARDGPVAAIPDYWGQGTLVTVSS VL: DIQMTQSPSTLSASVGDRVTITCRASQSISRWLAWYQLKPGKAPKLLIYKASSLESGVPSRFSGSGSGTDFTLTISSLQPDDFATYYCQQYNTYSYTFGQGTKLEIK in the same way.
Result: 64

Q: Consider next the binder H4H12168P (antibody, human IgG4, V domains shown, Human IgG4 Fc with S108P hinge mutation (H4H)) VH: QVQLVESGGGVVQPGGSLRLSCAASGFTFGGHAMHWVRQAPGKGLEWLAVISSDGSNKQYADSVKGRFTISRDNPKNTLYLQMNSLRVGDTAIYYCAKEVAPRYYYYGLDVWGQGTTVTVSS VL: DIQMTQSPSSLSASVGDRVTITCRASQDISNFLAWYQQKPGKVPKLLIYTASTLQSGVPSRFSGSGSGTDFTLTVSSLQPEDVATYYCQKYAGALTFGPGTKVDIK in the same way.
Result: 29

Q: Consider next the binder H4H11686N (antibody, V domains shown, also called H2M11686N) VH: QVQLVESGGGLVKPGGSLRLSCAASGFTFSDYYMSWIRQAPGKGLEWVSYISSSGNTIKYADSMKGRFTISRDNAKKSLFVEMNSLRAEDTAVYYCARYKSSSDYFDHWGQGTLVTVSS VL: EIVLTQSPATLSLSPGERATLSCRASQSVRSYLAWYQQKPGQAPRLLIYDASNRATAIPARFSGSGSGTDFTLTISSLEPEDLAVYYCQQSGNWPLTFGGGTKVEIK in the same way.
Result: 74

Q: Consider next the binder H4H12159P (antibody, human IgG4, V domains shown, Human IgG4 Fc with S108P hinge mutation (H4H)) VH: QVQLVESGGGVVQPGRSLRLSCGASGFTFSTYGMHWVRQAPGKGLEWVAVIWDDGNNKYYADSVKGRFTISRDNSKNTLYLQMNSLRAEDTAVYYCARDSEVAPVGDYWGQGTLVTVSS VL: DIQMTQSPSTLSASVGDRVTIICRASQSINRWLAWYQQKPGKAPKLLIYKASSLESGVPSRFSGSGSGTEFTLTISSLQPDDFAAYYCQQYNDYSYTFGQGTKLEIK in the same way.
Result: 82

Q: Consider next the binder H4H12167P (antibody, human IgG4, V domains shown, Human IgG4 Fc with S108P hinge mutation (H4H)) VH: QVQLVESGGGLVKPGGSLRLSCAASGFTFSDSYMSWIRQAPGKGLEWISYIGSSGNTFYYADSVKGRFTISRDNANNLLYLQMTSLRAEDTAVYYCAREEGDFWSAVDSWGQGTLVTVSS VL: DIQLTQSPSFLSASVGDRVTITCWASQGISSYLAWYQQKPGKAPKLLIHTASTLQSGVPSRFSGSGSGTEFTLTISNLQPEDFATYYCQQLNSYPFTFGPGTKVDIK in the same way.
Result: 65

Data provenance: patent US20170355757A1
